Test system: CAKI-1 renal
Assay: NCI-60 one-dose screen, 48 h (100 = growth as untreated, 0 = no growth, -100 = all killed)
Conditions: 10 µM unless noted
Compounds without any hit were thinned out: in the full panel of roughly 83,000, 20% have a hit. Calls of active or inactive are those of the source. Rule for the calls: active = growth percent below 10; inactive = the rest.
VALUE TYPE: growth

COc1ccc(OC)c(NC(=O)CCCCCCNC(=O)C(O)(O)C(F)(F)F)c1 : 25.2% (inactive)
C/C(CC1(O)C(=O)Nc2ccccc21)=N\O (stereo not given) : 83.5% (inactive)
NC1=NC2(CCCC2)N(c2ccc(S(=O)(=O)Nc3nccs3)cc2)C(N)=N1 : 93.6% (inactive)
CN(C)CCCOc1ccc(C(=C(c2ccccc2)C2CCCC2)c2ccc(OCCCN(C)C)cc2)cc1 : -79.3% (active)
COc1cc(-c2nc(-c3ccccc3)[nH]c2-c2ccnc(NCCCNS(=O)(=O)c3cccc(F)c3)n2)ccc1F : 106% (inactive)

## Input Jot down growth (CAKI-1 renal) of O=C(N/N=C/c1cc2ccccc2nc1Cl)c1cc(-c2nc3ccccc3[nH]2)nc2ccccc12 .
## Output 71.6% (inactive)

## Input Fill: growth (CAKI-1 renal) for this compound CC(=O)Nc1cc(N2CCOCC2)c2nc(NC(=O)c3[nH]c(C)c(Cl)c3Cl)sc2c1
## Output 93.1% (inactive)

## Input Please report the measured growth for O=C1c2ccccc2C23C(=C(c4cncnc4)c4ccccc42)CCCN13 (stereo not given) tested on CAKI-1 renal.
## Output 78.5% (inactive)

## Input Provide growth, tested on CAKI-1 renal, for Cc1[nH]c(C(=O)Nc2ccccc2OCc2cccc(C(=O)NCCN)c2)cc1Cl .
## Output 90.2% (inactive)

## Input Quote CAKI-1 renal growth for entry CC1CCN(CC(=O)Nn2c(COc3ccccc3)nc3ccccc3c2=O)CC1 .
## Output 71.2% (inactive)
